assay: self-splicing fitness, log relative to wild type (ln ratio); higher = more splicing; Tetrahymena group I intron in knt gene, E. coli kanamycin selection, DiMSum; sequences stand for … in CUCUCU…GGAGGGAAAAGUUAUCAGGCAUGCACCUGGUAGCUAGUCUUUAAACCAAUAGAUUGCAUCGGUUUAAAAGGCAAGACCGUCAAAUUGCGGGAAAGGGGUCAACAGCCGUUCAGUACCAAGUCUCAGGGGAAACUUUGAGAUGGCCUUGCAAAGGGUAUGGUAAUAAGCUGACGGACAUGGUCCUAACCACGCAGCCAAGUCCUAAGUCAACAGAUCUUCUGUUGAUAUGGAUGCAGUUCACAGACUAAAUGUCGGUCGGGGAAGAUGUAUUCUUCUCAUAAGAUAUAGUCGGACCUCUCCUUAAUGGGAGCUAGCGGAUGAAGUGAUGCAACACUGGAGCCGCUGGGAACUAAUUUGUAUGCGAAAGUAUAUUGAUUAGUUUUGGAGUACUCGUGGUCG; conditions: 30 °C;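 note: selection with 25 µg/mL kanamycin versus none on LB agar overnight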
Where self-splicing fitness (ln) equals or exceeds -2, the correct label is YES; where it does not, the label is NO.

Worked cases, answers included:
sequence-data	classification
CUGGAGCAAUAUUACGAAGG	NO
UCUCAGCAAUAUUACGAGUG	YES
AUCUAGCAAUAUUACGAUGU	YES

Now for a further sequence.
Exam item: Is it the case that UUGAAGCAAUAUUACGGGCG has self-splicing fitness (ln) reaching or exceeding -2?
Marked response: YES
